- Tested on: NCI-H522
- procedureDetails: NCI tumour cell line growth inhibition, 48 h
The source made the active and inactive calls. Cut-off read from the data, not from the text of the source: active = GI50 up to about 1.1 µM and inactive = higher.
reportedProperty: GI50

// fetch GI50 given entry C=C1C(=O)OC2CC3(C)OC3CC/C(C)=C/C(OC(C)=O)C12 (stereo not given)
1.04 µM (active)

Provide one value: measured GI50 of Nc1ccc([C@H]2C(=O)N[C@H]3CCC[C@H]32)cc1
> 100 µM (inactive)

Give the measured GI50 for O=c1c2c3c(sc2nc2n1N=C(c1ccc(Cl)cc1)CS2)CCCC3
> 100 µM (inactive)

Identify GI50 associated with the compound C=C(/C=C/C=C(\C)CCC=C(C)C)[C@@H]1CC[C@]2([C@H](CCCO)/C(=C(/C)C=O)CC[C@]2(C)O)[C@@H]1O
16.7 µM (inactive)

Quote GI50 reported for N=C(N)N/N=C/c1oc(-c2ccc(S(=O)(=O)O)o2)c(-c2ccc(S(=O)(=O)O)o2)c1[N+](=O)[O-] please.
> 100 µM (inactive)

State its GI50 for this compound: C=C1C(=O)OC2/C=C(CO)/C=C\C3OC3(C)CC(OC(=O)/C(C)=C/COC(C)=O)C12 (stereo not given)
0.692 µM (active)

Output measured GI50 for this item: COc1ccc(CC(=O)NCCc2ccc(OC)c(OC)c2)cc1Br
> 100 µM (inactive)

Annotate the compound N=C(N)N/N=C/c1nc2sccn2c1[N+](=O)[O-] with its measured GI50.
21.6 µM (inactive)

Determine from records and report GI50 for O=C1Oc2ccccc2C(=O)/C1=C/N1C(=O)N/C(=C\c2ccccc2O)C1=O
55.5 µM (inactive)

Look up GI50 of COc1cc(/C=C/C(=O)CC(=O)/C=C/c2cc(OC)c(O)c(OC)c2)cc(OC)c1O and report it.
5.81 µM (inactive)

###

- System: MCF7
- procedureDetails: NCI tumour cell line growth inhibition, 48 h
Calls of active or inactive are those of the source. No stated cut-off is given here; in the data, active = GI50 up to about 1.1 µM and inactive = higher.
One label from this list, please: active, inactive

Status in this test for CC1=NN(C(=O)CSc2nnc(SCC(=O)N3N=C(C)CC3(O)c3ccccc3)s2)C(O)(c2ccccc2)C1 (stereo not drawn) ?
inactive

Which outcome was entered for the molecule CC(=O)NC1C(O)C(O)C(CO)OC1n1nc(SCc2ccccc2)c(=O)[nH]c1=O (stereo not drawn) in this test?
inactive

Which result was noted for this molecule in the test: CC1=NN(c2cccc(Cl)c2)C2(C1=Cc1cccs1)C(Cl)C(=O)N2c1nc2ccccc2s1 (stereo not drawn)
inactive

Returns: the outcome recorded for C=CCn1c(=O)c(C(=O)Nc2nc(C34CC5CC(CC(C5)C3)C4)cs2)c(O)c2ccccc21 in this assay.
inactive

Which outcome was assigned to COc1cc(S(=O)(=O)Nc2ccc(-c3csc(/N=C\c4cccs4)n3)cc2)ccc1Cl in this test?
inactive

I'd appreciate the recorded outcome for COC1/C=C/C(C)C(O)CC(O)/C=C/C(C)C(C(C)C(OC)C(C)CCC(=O)C(C)C(C/C=C/N(C)C=O)OC)OC(=O)/C=C/C=C(\C)CC(OC)CC2=CC(=O)O[C@@H](C(C)C(OC)C1)[C@H]2O (stereo partly drawn) from this test.
active

Recorded call for CC(C)(C)OC(=O)NC1CCC(C(C)(C)C)CC1 (stereo not drawn) ?
inactive

Each molecule tested received a call. Report the one for O=S1(=O)c2ccccc2-c2nccc3ccnc1c23 .
inactive

###

Consider the following compounds; for each one, report its GI50.
- System: RXF 393
- procedureDetails: NCI tumour cell line growth inhibition, 48 h
Calls of active or inactive are those of the source. Cut-off read from the data, not from the text of the source: active = GI50 up to about 1.1 µM and inactive = higher.

State its GI50: C/C(CC(=O)N(C(C)C)C(C)C)=N\NC(=O)c1ccncc1
> 100 µM (inactive)

Supply reported GI50 belonging to this compound: Cc1ccc(NC(=O)c2cccc(OP(=O)(Nc3ccc(C)cc3)Nc3ccc(C)cc3)c2)cc1
1.91 µM (inactive)

Please report GI50 for the following compound: N#Cc1ccc(N2CCOCC2)cc1
> 100 µM (inactive)

Read off the recorded GI50 for CCOC(=O)/C(C(=S)NC)=C(/N)N1CCCC1
> 100 µM (inactive)

Identify measured GI50 corresponding to COc1cccc(/C=N\NC(=O)C(C)SC(C)C(=O)N/N=C/c2cccc(OC)c2)c1 (stereo not given)
11.1 µM (inactive)

Read the entry COc1cc(O)c2c(=O)c3c(C)cccc3n(C)c2c1 and write its reported GI50.
> 10 µM (inactive)

Return the recorded GI50 value; entry: COc1ccc(C(c2c(O)c3ccccc3n(C)c2=O)c2c(O)c3ccccc3n(C)c2=O)cc1
73.3 µM (inactive)

Supply measured GI50 of CCNCCNC(=O)c1ccc(I)cc1 in your reply.
> 100 µM (inactive)

Determine from records and report GI50 for CC(C)c1c(O[Si](C(C)C)(C(C)C)C(C)C)cc2c(c1O)CC[C@H]1C(C)(C)CCC[C@]21C
> 100 µM (inactive)

Look up and report measured GI50 for this entry: COc1ccc2c3c([nH]c2c1[N+](=O)[O-])C(C)N(Cc1ccccc1)CC3 (stereo not given)
3.21 µM (inactive)

###

Please respond with reported GI50 for every item in the list.
- System: A498
- procedureDetails: NCI tumour cell line growth inhibition, 48 h
Activity calls are given as the source filed them. No stated cut-off is given here; in the data, active = GI50 up to about 1.1 µM and inactive = higher.

Look up and state reported GI50 for C/C=N\n1c(C)n[nH]c1=O
> 100 µM (inactive)

Check the records and state GI50 for C/C(CC(=O)N(C(C)C)C(C)C)=N\NC(=O)c1ccncc1
> 100 µM (inactive)

Determine its reported GI50: O=C1Oc2ccccc2C(=O)/C1=C/N1C(=O)N/C(=C\c2ccccc2O)C1=O
42.6 µM (inactive)

Provide GI50 value for the following compound: C=C1C(=O)OC2/C=C(CO)/C=C\C3OC3(C)CC(OC(=O)/C(C)=C/COC(C)=O)C12 (stereo unspecified)
7.43 µM (inactive)

Return GI50 (reported value) for this compound: CC(=O)Oc1cc2oc(=O)cc(C)c2cc1OC(C)=O
44.6 µM (inactive)

Please give measured GI50 of the following entry: CC(C)(C)OC(=O)C1C(=O)NC(=O)CC1C(OCc1ccccc1)C(OCc1ccccc1)C(COCc1ccccc1)OCc1ccccc1 (stereo unspecified)
> 75 µM (inactive)

Identify measured GI50 corresponding to O=C(CCCCCCCCC(=O)N1C(=O)CC(=O)N(c2cccc(Cl)c2)C1=S)N1C(=O)CC(=O)N(c2cccc(Cl)c2)C1=S
39.9 µM (inactive)

Specify GI50 for N#Cc1c(-c2ccccc2)c(/N=N/c2ccc(Cl)cc2)c(=O)n2c1[nH]c1ccccc12 and stop.
> 100 µM (inactive)

Supply GI50 value. Item: CC[C@@]1(O)C(=O)OCc2c1cc1n(c2=O)Cc2c-1nc1ccccc1c2/C=N/NC(=O)c1ccc(N)cc1
0.33 µM (active)

Tell me measured GI50 for O=C1CCCC2=C1CC1=C(CCCC1=O)N2c1ccc(Cl)cc1 please.
> 100 µM (inactive)

Report GI50 for O=c1[nH]c(=O)n([C@@H]2O[C@H](CO)[C@@H](O)[C@@H]2F)cc1I
59.4 µM (inactive)

Kindly indicate its recorded GI50. Item: COC1/C=C\C=C(/C)C(=O)NC2=CC(=O)C(N)=C(CC(C)CC(OC)C(O)C(C)C=C(C)C1OC(N)=O)C2=O (stereo unspecified)
19.1 µM (inactive)

Specify GI50 for CC(C)(C)OC(=O)NC1CCC(C(C)(C)C)CC1 (stereo unspecified) and stop.
> 100 µM (inactive)

Note down GI50 recorded for COc1ccc(/C(Cl)=C(\C=N/O)c2ccc(OC)c(OC)c2)cc1OC
> 100 µM (inactive)

Please report the measured GI50 for O=C(O)c1ccc([N+](=O)[O-])c2cc3cnccc3nc12
70 µM (inactive)

Return the recorded GI50 value; entry: C[C@H]1S[C@H](c2c(Cl)cccc2Cl)N2Cc3ccccc3N=C12
24.5 µM (inactive)

Quick one: give measured GI50 for CC1=C(C#N)C2C(=C(C)N1)C(N)=Nc1ccccc12 (stereo unspecified)
22.3 µM (inactive)

Read the entry COc1ccc(CCNC(=O)Cc2ccccc2CO)cc1OC and write its reported GI50.
> 100 µM (inactive)

Item COc1ccc(C2=NC(C)(C)CO2)cc1 : provide GI50
> 100 µM (inactive)

Provide one value: measured GI50 of O=C(Nc1cccc2ccccc12)Oc1ccccc1C1CCCCC1
17.6 µM (inactive)

Please report GI50 for the following compound: Cc1ccc(C)c2c1CCc1cc3ccccc3nc1-2
> 100 µM (inactive)

###

- System: NCI-H522
- procedureDetails: NCI tumour cell line growth inhibition, 48 h
Active and inactive are the calls of the source. No stated cut-off is given here; in the data, active = GI50 up to about 1.1 µM and inactive = higher.
Answer with one of the outcomes given here: active, inactive

Per the assay record, what outcome was assigned to CC(C)CCCCCCCCCCCCC(=O)NCC(=O)NC1C(O)C(O)C(Nc2[nH]cnc3ncnc2-3)OC1C(O)CO (centres undefined) ?
active

Would you mind telling me which call this test gave O=C1C=C(N2CCCC2)C=C(N2CCCC2)C1 ?
inactive

Per the records of this test, what outcome belongs to CN(CCCNC(=O)c1cc(-c2ccccc2)nc2ccccc12)CCCNC(=O)c1cc(-c2ccccc2)nc2ccccc12 ?
inactive

Which result was noted for this compound in the test: CC(=O)OCC1OC(n2c(=S)n(-c3ccccc3)c(=O)c3cc(Br)ccc32)C(OC(C)=O)C1OC(C)=O (centres undefined)
inactive

Test call for this compound, please: COc1ccccc1C1c2cc3c(cc2OC(N2CCCC2)C1C)OCO3 (centres undefined)
inactive

// outcome(item) with item = O=C(O)CCN(CCCCN(CCC(=O)O)CCC(=O)O)CCC(=O)O
inactive

State the result this test recorded for Nc1nc(SCCNC(=O)CCc2ccc(O)cc2)nc2c1ncn2C1OC(CO)C(O)C1O (centres undefined) .
inactive

Please state the recorded outcome for this compound: c1ccc(C[N+]23CN4CN(CN(C4)C2)C3)cc1
inactive

Dear colleague, could you share the recorded outcome for O=C(CCCCCCCCC(=O)N1C(=O)CC(=O)N(c2cccc(Cl)c2)C1=S)N1C(=O)CC(=O)N(c2cccc(Cl)c2)C1=S when you have a moment?
inactive
